Test: melting temperature; fluorescence melt of hairpins on a sequencing array, two-state fit, raised by 9.35 °C to match UV melts
Conditions: sodium 0.088 M
Measured Quantity: Tm (°C)
Provide only the numeric value, understood in °C.

Prompt: Please give the measured Tm for this sequence: GGCTTTCGAAAGAAGGCC (((.(((....))).)))
Response: 56.7

Prompt: Would you mind doing GCGAGCTGTCGC ((((....)))) as well?
Response: 48.8

Prompt: Entry to check: GATCGGCGACCCGATC ((((((....))))))
Response: 55.6

Prompt: Now consider GATCGGGGCTCCGATC ((((((....)))))) and answer again.
Response: 59.4

Prompt: Would you mind doing GCAGTACGAAAGTATGC (((.(((....)))))) as well?
Response: 48.4

Prompt: Please give the result for GGTCCAGGAAACTGAACC (((.(((....))).))) too.
Response: 40

Prompt: What do we get for GATCCGATCCGGATC ((((((...)))))) ?
Response: 58.5

Prompt: Next record, please: CGCGGAACACTCCGCG ((((((....))))))
Response: 63.3

Prompt: Check GGTGCTGGAAACAACACC ((((.((....)).)))) too.
Response: 46

Prompt: Please do the same for GCGAAAGGAAACTTTCGC (((((((....))))))) as well.
Response: 64.6

Prompt: GTCGATCGAAAGATGAC (((.(((....)))))) ?
Response: 43.7

Prompt: Entry GGAGGAGGAAACTTCTCC ((((.((....)).)))) please
Response: 45.2

Prompt: Lookup GTAACCGGAAACGATTAC ((((.((....)).))))
Response: 36.4

Prompt: Please give the result for GATCAATCGTTGATC ((((((...)))))) too.
Response: 40.4

Prompt: Another sequence: GATCGCCAGTGCGATC ((((((....))))))
Response: 64.4

Prompt: # repeat for GTGGTCGAAAGACAGCAC ((((((....)))..)))
Response: 40.6

Prompt: Next: GACGGTGGAAACACCGCC (.(((((....))))).)
Response: 50.4

Prompt: Repeat with GTATTGGGAAACCAGTAC (((.(((....))).)))
Response: 40

Prompt: Follow-up item: GATCGTATGTACGATC ((((((....))))))
Response: 56.8

Prompt: Please do the same for GTGTGCCGAAAGGCCCAC (((.(((....))).))) as well.
Response: 53.1

Prompt: Also need CGCTCGGAAACGAACGCG ((((((....)))..))) , thanks.
Response: 44.8

Prompt: Continue with GGGATACGAAAGTACCCC (((.(((....))).)))
Response: 50.8

Prompt: Similarly, GACGGTACGAAAGTAGTC (((..(((....)))))) ?
Response: 34.5

Prompt: Record: CGGGGGAAACCCCG (((((....)))))
Response: 68.5

Prompt: Also GCGGGGGGAAACCCCTGC ((.((((....)))).)) , if possible.
Response: 61.9

Prompt: And GGCATGCGAAAGCAAGCC (((.(((....))).))) ?
Response: 65.4

Prompt: Now give it for GGGTCAGGAAACCAACCC ((((..(....)..)))) too.
Response: 33

Prompt: Would you kindly repeat that for GATCTTCCGAAAGATC ((((((....)))))) ?
Response: 43.2

Prompt: Again, but for GTTCCCGAAAGGGTAAAC ((((((....)))..)))
Response: 28.8

Prompt: Then this sequence: GCGTCTACGAAAGTACGC (((..(((....))))))
Response: 47.6

Prompt: Same thing, different sequence: GATCCCAAAGGGGATC ((((((....))))))
Response: 57.3

Prompt: Same again, this time with GTGGCCGAAAGGCCTCAC ((((((....)))..)))
Response: 40.4

Prompt: Then what about the sequence GGGACTGGAAACAGTCTC (.(((((....))))).) ?
Response: 51.7

Prompt: And what about the sequence GGACTGCCGAAAGGCTCC (((..(((....)))))) ?
Response: 34.7

Prompt: Now consider GACCGTGGAAACACGATC ((.((((....)))).)) .
Response: 43.1

Prompt: Similarly, GATCGACGAAAGTCATC (((.(((....)))))) ?
Response: 33.1

Prompt: Another sequence to check: GATCGAGACATCGATC ((((((....))))))
Response: 58.8

Prompt: Could you do the same for GCAGTCGAAAGACGTGC ((((((....))).))) , please?
Response: 51.8

Prompt: Now the sequence GCCCATGCGAAAGCAGGC (((..(((....))))))
Response: 50.8

Prompt: Repeat for the following sequence: GATCGTTATGACGATC ((((((....))))))
Response: 55.9

Prompt: Note, next up: GTTTCGCGAAAGCGTAAC (((.(((....))).)))
Response: 48.6

Prompt: Let us now turn to GATCGGTGGCCCGATC ((((((....))))))
Response: 57.1

Prompt: Same for GATCATATTGATGATC ((((((....))))))
Response: 47.3

Prompt: Check GTCGTTTCGAAAGAAGAC (((..(((....)))))) too.
Response: 28.9

Prompt: Next up: GATCGTGATTACGATC ((((((....))))))
Response: 56

Prompt: What would you report for GGTGAGGGAAACCTCGTC (..((((....))))..) ?
Response: 33.2

Prompt: Okay, and GGTGTCGAAAGACTCACC ((((((....)))..))) ?
Response: 39.1

Prompt: Similarly, GAAAGCGGAAACGTTTTC ((((.((....)).)))) ?
Response: 42.4

Prompt: Subsequent entry: GAAGACACGAAAGTGTTC (((..(((....))))))
Response: 31.9

Prompt: Field entry: GCAATCGAAAGATTGC ((((((....))))))
Response: 64

====

Assay: folding enthalpy; higher = less favourable; fluorescence melt of hairpins on a sequencing array, two-state fit
Settings: sodium 0.088 M
Provide the recorded folding enthalpy for the entries that follow.
Give just the number in kcal/mol; leave the unit off.

Prompt: Any idea what folding enthalpy was measured for GGTGTTGCGAAAGCAACC (((..(((....)))))) ?
Response: -8.2

Prompt: // same read-out, input: GCTCAACGAAAGTTTAGC (((.(((....))).)))
Response: -28.2

Prompt: Try the sequence GATCGTCGAGACGATC ((((((....))))))
Response: -36.9

Prompt: Follow-up entry: GGTGAGCCGAAAGGCACC (((..(((....))))))
Response: -13.2

Prompt: Next entry: GATCGGGGCTCCGATC ((((((....))))))
Response: -34.5

Prompt: Follow-up entry: GATCTAGGATTAGATC ((((((....))))))
Response: -29.1

Prompt: Quick one: GGTCGACGAAAGTCAACC (((.(((....))).)))
Response: -32.2

Prompt: Ok, now GGGCTTGGAAACGAGCCC (((((.(....).)))))
Response: -51.4

Prompt: Same thing, different sequence: GCCTGAGGAAACTTAGGC ((((.((....)).))))
Response: -31.2

Prompt: Moving on to GATCTCCACGGAGATC ((((((....))))))
Response: -39.2

Prompt: Next: GTACTCGAAAGAGCATAC ((((((....)))..)))
Response: -10.9

Prompt: And the next one, GCAGTGCGAAAGCCCCGC ((.(.((....)).).)) ?
Response: -10.3

Prompt: Repeat with GAGAGAGGAAACTCTCTC (((((((....)))))))
Response: -35.4

Prompt: Entry to check: GGCCTAGGAAACTAAGCC (((.(((....))).)))
Response: -20.1

Prompt: What about GTCACAGGAAACTACGAC (((..((....))..))) ?
Response: -21.8

Prompt: // same read-out, input: GATCCTTGCAAGGATC ((((((....))))))
Response: -41

Prompt: # repeat for CGATGGCGGAAACGCTCG (((..(((....))))))
Response: -15.8

Prompt: Record: GATCGCCCGGCGATC ((((((...))))))
Response: -40.9

Prompt: Further, for GGCTCTGGAAACAGAGTC (.(((((....))))).) ?
Response: -35.7

Prompt: Same again, this time with GATCCAATAGTGGATC ((((((....))))))
Response: -30.8

Prompt: Same thing, different sequence: GATCCCATGGGGATC ((((((...))))))
Response: -33.2

Prompt: Moving on to the next sequence: GCCATGCGAAAGCGTTGC ((.(.((....)).).))
Response: -18.1

Prompt: Same lookup for GTATGGACGAAAGTCTAC (((..(((....)))))) , please.
Response: -10.9

Prompt: Would you mind doing GATGGCGAAAGCCGTATC ((((((....)))..))) as well?
Response: -6.56

Prompt: How about this sequence: GCTGTCCGAAAGGATAGC (((.(((....))).)))
Response: -39.6
